molecular target: mouse P-gp (Mus musculus, UniProt P21447, N83Q/N87Q/N90Q); assay: Yeast chemosensitization; type: cell-based; details: P-gp-expressing yeast, +10 μM DOX
Sequence (P21447 whole entry N83Q/N87Q/N90Q): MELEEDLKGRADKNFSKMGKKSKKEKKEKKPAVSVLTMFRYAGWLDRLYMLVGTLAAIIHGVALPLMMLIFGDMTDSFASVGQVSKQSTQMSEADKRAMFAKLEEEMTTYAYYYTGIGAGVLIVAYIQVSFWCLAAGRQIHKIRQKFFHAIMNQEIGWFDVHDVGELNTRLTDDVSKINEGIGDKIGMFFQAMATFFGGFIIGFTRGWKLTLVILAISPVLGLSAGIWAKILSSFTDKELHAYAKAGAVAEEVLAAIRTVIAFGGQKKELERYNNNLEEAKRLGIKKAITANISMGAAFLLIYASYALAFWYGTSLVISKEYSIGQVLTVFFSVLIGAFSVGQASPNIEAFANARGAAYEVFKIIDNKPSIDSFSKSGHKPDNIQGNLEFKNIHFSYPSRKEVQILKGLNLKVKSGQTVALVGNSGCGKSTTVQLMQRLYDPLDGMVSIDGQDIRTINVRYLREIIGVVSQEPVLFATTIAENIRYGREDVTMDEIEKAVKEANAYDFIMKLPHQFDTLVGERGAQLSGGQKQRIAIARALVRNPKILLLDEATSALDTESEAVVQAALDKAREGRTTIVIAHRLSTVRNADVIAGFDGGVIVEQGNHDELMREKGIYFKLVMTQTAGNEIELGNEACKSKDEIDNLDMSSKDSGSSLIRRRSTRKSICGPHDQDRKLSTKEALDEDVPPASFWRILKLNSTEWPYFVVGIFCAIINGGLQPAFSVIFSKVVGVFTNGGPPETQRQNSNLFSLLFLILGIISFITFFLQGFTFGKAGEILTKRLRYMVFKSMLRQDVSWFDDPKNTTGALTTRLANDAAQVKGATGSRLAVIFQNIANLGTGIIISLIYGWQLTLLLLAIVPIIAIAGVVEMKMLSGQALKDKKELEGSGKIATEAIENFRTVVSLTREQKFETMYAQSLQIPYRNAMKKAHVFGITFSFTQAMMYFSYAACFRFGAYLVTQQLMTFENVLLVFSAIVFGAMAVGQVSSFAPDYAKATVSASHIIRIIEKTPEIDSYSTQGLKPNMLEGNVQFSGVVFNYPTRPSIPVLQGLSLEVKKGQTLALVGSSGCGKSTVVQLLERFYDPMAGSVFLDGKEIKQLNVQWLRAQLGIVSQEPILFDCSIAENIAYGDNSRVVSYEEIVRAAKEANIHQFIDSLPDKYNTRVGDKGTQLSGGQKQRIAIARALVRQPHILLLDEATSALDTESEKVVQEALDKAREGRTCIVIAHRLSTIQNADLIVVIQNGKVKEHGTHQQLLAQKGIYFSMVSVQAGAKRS
test_readout: IYeast, inhibition in the yeast cytotoxicity assay

Take a look at these entries with their results.
>  <compound>
COc1ccc(C(c2ccc(OC)cc2)C(Cl)(Cl)Cl)cc1

>  <assay_value>
N

$$$$
>  <compound>
Clc1cc(-c2cc(Cl)c(Cl)c(Cl)c2)cc(Cl)c1Cl

>  <assay_value>
N

$$$$
>  <compound>
ClC1=C(Cl)C2(Cl)C3C4CC(C5OC45)C3C1(Cl)C2(Cl)Cl (stereo not shown)

>  <assay_value>
Y

$$$$
>  <compound>
Brc1ccc(Oc2c(Br)cc(Br)cc2Br)c(Br)c1

>  <assay_value>
Y

$$$$

Hi there! I need IYeast, inhibition in the yeast cytotoxicity assay for each item below, if you can.
1. Clc1cc(Cl)c(-c2cc(Cl)c(Cl)c(Cl)c2)c(Cl)c1
2. CC(C)(c1ccc(O)cc1)c1ccc(O)cc1
3. Clc1cc(Cl)c(Cl)c(-c2c(Cl)cccc2Cl)c1Cl
4. Brc1ccc(Oc2cc(Br)ccc2Br)c(Br)c1
5. Clc1cc(Cl)c(-c2cc(Cl)c(Cl)cc2Cl)c(Cl)c1

A)
["N", "N", "N", "Y", "N"]

The measured IYeast, inhibition in the yeast cytotoxicity assay associated with Cl[C@H]1[C@H](Cl)[C@H](Cl)[C@@H](Cl)[C@H](Cl)[C@H]1Cl reads N
